Reported values of Stability for individual entries
test system: Liver; experiment: Metabolic stability in CD1 mouse liver microsomes assessed as compound remaining at 1 uM after 120 mins by HPLC-MS analysis; assay type: ADME; conditions: 2 h

compound: CC[C@H](C)[C@H]1C(=O)N2CCC[C@H]2C(=O)O[C@H](C(C)(C)C)C[C@@H](C)C[C@H](O)C(C)(C)C2=N[C@@H](CCC(=O)N[C@@H](Cc3ccc(OC)cc3)C(=O)N(C)[C@@H](C)C(=O)N1C)CS2
Stability, %: 70.05

compound: CC[C@H](C)[C@H]1C(=O)N2CCC[C@H]2C(=O)O[C@H](C(C)(C)C)C[C@@H](C)C[C@H](O)[C@H](C)C2=N[C@H](CCC(=O)N[C@@H](Cc3ccc(OC)cc3)C(=O)N(C)[C@@H](C)C(=O)N1C)CS2
Stability, %: 56.25

compound: CC[C@H](C)[C@H]1C(=O)N2CCC[C@H]2C(=O)O[C@H](C(C)(C)C)C[C@@H](C)C[C@H](O)[C@H](C)C2=N[C@@H](CCC(=O)N[C@@H](Cc3ccc(OC)cc3)C(=O)N(C)[C@@H](C)C(=O)N1C)CS2 [APRATOXIN S4]
Stability, %: 55.25

compound: CC[C@H](C)[C@H]1C(=O)N2CCC[C@H]2C(=O)O[C@H](C(C)(C)C)C[C@@H](C)C[C@H](O)CC2=N[C@@H](CCC(=O)N[C@@H](Cc3ccc(OC)cc3)C(=O)N(C)[C@@H](C)C(=O)N1C)CS2
Stability, %: 53.85

The measured values listed here are drawn from ChEMBL document CHEMBL3232820.
